Biological target: VIM-2 (Escherichia coli)
Assay: biochemical
Conditions: CCF2-FA fluorescence assay; read-out: VIM2 IC50
MEASURED ENDPOINT: log10 of IC50 (log10 of the value in nM)
Values are log10 of IC50 in nM.

Q. Entry under review: "CN(C)[C@H]1CCN(c2ccc(S(=O)(=O)N[C@@H]3CCNC3)c(S(N)(=O)=O)c2-c2nnn[nH]2)C1" . Reported log10 of IC50?
A. 1.27

Q. Entry under review: "NC[C@@H](O)CNS(=O)(=O)c1ccc(N2CCC3(CC2)CNC(N)=N3)c(-c2nn[nH]n2)c1S(N)(=O)=O" . Reported log10 of IC50?
A. 1.44

Q. Entry under review: NS(=O)(=O)c1c(S(=O)(=O)C2CNC2)ccc(N2CCCC(CO)C2)c1-c1nnn[nH]1 (stereo not shown) . Reported log10 of IC50?
A. 0.27

Q. Entry under review: "NS(=O)(=O)c1c(S(=O)(=O)N[C@@H]2CCNC2)ccc(N2CCCC(=O)C2=O)c1-c1nn[nH]n1" . Reported log10 of IC50?
A. 0.77

Q. Entry under review: NS(=O)(=O)c1c(S(=O)(=O)N[C@@H]2CCNC2)ccc(N2CCCC(O)C2=O)c1-c1nn[nH]n1 (stereo partly shown) . Reported log10 of IC50?
A. 0.18

Q. Entry under review: "NCCC1CCN(c2ccc(S(=O)(=O)N[C@@H]3CCNC3)c(S(N)(=O)=O)c2-c2nn[nH]n2)CC1" . Reported log10 of IC50?
A. 0.21

Q. Entry under review: NCC1CCN(c2ccc(S(=O)(=O)N[C@@H]3CCNC3)c(S(N)(=O)=O)c2-c2nn[nH]n2)CCN1 (stereo partly shown) . Reported log10 of IC50?
A. 1.72

Q. Entry under review: "NC[C@@H](O)CNS(=O)(=O)c1ccc(N2C[C@H]3CNC[C@H]3C2)c(-c2nn[nH]n2)c1S(N)(=O)=O" . Reported log10 of IC50?
A. 1.17

Q. Entry under review: "NC[C@@H](O)CNS(=O)(=O)c1ccc(N2CCN(CCO)C(=O)C2)c(-c2nn[nH]n2)c1S(N)(=O)=O" . Reported log10 of IC50?
A. 0.25

Q. Entry under review: "NCC1CCN(c2ccc(S(=O)(=O)NC[C@H](O)CN)c(S(N)(=O)=O)c2-c2nnn[nH]2)CC1" . Reported log10 of IC50?
A. 0.54

Q. Entry under review: "NC[C@@H](O)CNS(=O)(=O)c1ccc(N2CCC(CCn3cccn3)CC2)c(-c2nn[nH]n2)c1S(N)(=O)=O" . Reported log10 of IC50?
A. -0.74

Q. Entry under review: "NS(=O)(=O)c1c(S(=O)(=O)N[C@@H]2CCNC2)ccc(N2CC[C@@H](CO)C2)c1-c1nnn[nH]1" . Reported log10 of IC50?
A. 0.10

Q. Entry under review: "NC[C@@H](O)CNS(=O)(=O)c1ccc(N2CCC(CC(N)=O)CC2)c(-c2nn[nH]n2)c1S(N)(=O)=O" . Reported log10 of IC50?
A. -0.13

Q. Entry under review: "NC[C@@H](O)CNS(=O)(=O)c1ccc(N2CCC(N)CC2)c(-c2nn[nH]n2)c1S(N)(=O)=O" . Reported log10 of IC50?
A. 1.17

Q. Entry under review: "CS(=O)(=O)CCN1CCN(c2ccc(S(=O)(=O)NC[C@H](O)CN)c(S(N)(=O)=O)c2-c2nn[nH]n2)CC1" . Reported log10 of IC50?
A. 0.36

Q. Entry under review: NS(=O)(=O)c1c(S(=O)(=O)N[C@@H]2CCNC2)ccc(N2CCOC(CO)C2)c1-c1nnn[nH]1 (stereo partly shown) . Reported log10 of IC50?
A. -0.23

Q. Entry under review: "NS(=O)(=O)c1c(S(=O)(=O)C2CNC2)ccc(N2CCC(CO)CC2)c1-c1nnn[nH]1" . Reported log10 of IC50?
A. 0.22

Q. Entry under review: CC1CC(CN)CCN1c1ccc(S(=O)(=O)NC[C@H](O)CN)c(S(N)(=O)=O)c1-c1nn[nH]n1 (stereo partly shown) . Reported log10 of IC50?
A. 0.38

Q. Entry under review: "NCCNS(=O)(=O)c1ccc(N2CCC(CN)CC2)c(-c2nnn[nH]2)c1S(N)(=O)=O" . Reported log10 of IC50?
A. 0.83

Q. Entry under review: Cl.Cl.NCC1CCN(c2ccc(S(=O)(=O)N[C@@H]3CCNC3)c(S(N)(=O)=O)c2-c2nn[nH]n2)CC1 [Example 135, dihydrochloride] . Reported log10 of IC50?
A. 0.48

Q. Entry under review: "NS(=O)(=O)c1c(S(=O)(=O)N[C@@H]2CCNC2)ccc(N2CCCN(CCO)CC2)c1-c1nnn[nH]1" . Reported log10 of IC50?
A. 1.12

Q. Entry under review: "NCC1=CCN(c2ccc(S(=O)(=O)NC[C@H](O)CN)c(S(N)(=O)=O)c2-c2nn[nH]n2)C1.O=C(O)C(F)(F)F.O=C(O)C(F)(F)F" . Reported log10 of IC50?
A. 1.63

Q. Entry under review: "NCCC(=O)N1CCN(c2ccc(S(=O)(=O)NC[C@H](O)CN)c(S(N)(=O)=O)c2-c2nn[nH]n2)CC1" . Reported log10 of IC50?
A. 0.92

Q. Entry under review: CC(N)C1CCN(c2ccc(S(=O)(=O)NC[C@H](O)CN)c(S(N)(=O)=O)c2-c2nnn[nH]2)CC1 (stereo partly shown) . Reported log10 of IC50?
A. 0.61

Q. Entry under review: NS(=O)(=O)c1c(S(=O)(=O)N[C@@H]2CCNC2)ccc(N2CCNC(CO)CC2)c1-c1nn[nH]n1 (stereo partly shown) . Reported log10 of IC50?
A. 1.39

Q. Entry under review: "NC[C@@H](O)CNS(=O)(=O)c1ccc(N2CCC(n3ccnc3)CC2)c(-c2nnn[nH]2)c1S(N)(=O)=O" . Reported log10 of IC50?
A. -0.66

Q. Entry under review: "NCCNS(=O)(=O)c1ccc(N2CCN(CCO)CC2)c(-c2nnn[nH]2)c1S(N)(=O)=O" . Reported log10 of IC50?
A. 1.18

Q. Entry under review: NC1(CO)CCN(c2ccc(S(=O)(=O)N[C@@H]3CCNC3)c(S(N)(=O)=O)c2-c2nnn[nH]2)C1 (stereo partly shown) . Reported log10 of IC50?
A. 1.67
